System: Escherichia coli
Method Summary: Antimicrobial activity against Escherichia coli ATCC 35218 by MTT assay
Type: functional
Test Readout: MIC (µg/mL)

Previously resolved entries follow.
- Molecule: "CC(=O)N1N=C(c2ccccc2)CC1c1ccccc1 (stereo unspecified)"
  MIC [µg/mL]: 25
- Molecule: "CC(=O)N1N=C(c2ccccc2F)CC1c1ccc(Cl)cc1 (stereo unspecified)"
  MIC [µg/mL]: 25

A: CC(=O)N1N=C(c2ccc(C)c(C)c2)CC1c1ccccc1Cl (stereo unspecified)
B: CC(=O)N1N=C(c2ccc(Cl)c(Cl)c2)CC1c1ccccc1Cl (stereo unspecified)
### Prompt Field: lower recorded MIC (choose A or B ) Answer = label.
### Response B
(B: 12.5 µg/mL, A: 25 µg/mL)

* * *

Test system: Staphylococcus aureus
Method Summary: Antimicrobial activity against Staphylococcus aureus ATCC 6538 by MTT assay
Assay type: functional
Test Readout: MIC (µg/mL)

Previously resolved entries follow.
- Compound: "CC(=O)N1N=C(c2ccc(Cl)cc2)CC1c1ccc(Cl)cc1 (centres undefined)"
  MIC, µg/mL: 25
- Compound: "COc1ccc(C2CC(c3ccccc3F)=NN2C(C)=O)cc1 (centres undefined)"
  MIC, µg/mL: 25
- Compound: "COc1ccc(C2CC(c3ccc(Br)cc3)=NN2C(C)=O)cc1 (centres undefined)"
  MIC, µg/mL: 12.5
- Compound: "CC(=O)N1N=C(c2ccc(Cl)cc2)CC1c1ccc(Br)cc1 (centres undefined)"
  MIC, µg/mL: 25
- Compound: "CC(=O)N1N=C(c2ccccc2F)CC1c1ccccc1Cl (centres undefined)"
  MIC, µg/mL: 12.5

I: CC(=O)N1N=C(c2ccccc2F)CC1c1ccccc1 (centres undefined)
II: COc1ccc(C2CC(c3ccccc3)=NN2C(C)=O)cc1 (centres undefined)
III: CC(=O)N1N=C(c2ccc(Br)cc2)CC1c1ccc(F)cc1 (centres undefined)
### Prompt Output the entries ranked by MIC from maximum down to minimum. Give your ranking as a list of the labels in the requested order.
### Response I, II, III
(I: 25 µg/mL, II: 12.5 µg/mL, III: 1.56 µg/mL)

* * *

Tested on: Escherichia coli
Method Summary: Antimicrobial activity against Escherichia coli ATCC 35218 by MTT assay
Type: functional
Test Readout: MIC (µg/mL)

- Compound: "CC(=O)N1N=C(c2ccc(Cl)cc2)CC1c1ccc(Cl)cc1 (stereo not drawn)"
  Test Readout: "MIC"
  Val: 12.5
- Compound: "COc1cc(OC)cc(C2CC(c3ccccc3F)=NN2C(C)=O)c1 (stereo not drawn)"
  Test Readout: "MIC"
  Val: 12.5
- Compound: "CC(=O)N1N=C(c2ccccc2F)CC1c1ccc(Br)cc1 (stereo not drawn)"
  Test Readout: "MIC"
  Val: 25

a: NC[C@H]1O[C@H](O[C@H]2[C@H](O)[C@@H](O[C@H]3O[C@H](CO)[C@@H](O)[C@H](N)[C@H]3O)[C@H](N)C[C@@H]2N)[C@H](N)[C@@H](O)[C@@H]1O
b: COc1ccc(C2=NN(C(C)=O)C(c3ccc(OC)cc3)C2)cc1 (stereo not drawn)
### Prompt MIC comparison. Which is larger, a or b ? Answer = label.
### Response b
(b: 3.12 µg/mL, a: 1.56 µg/mL)

* * *

Tested on: Staphylococcus aureus
Method Summary: Antimicrobial activity against Staphylococcus aureus ATCC 6538 by MTT assay
Format: functional
Test Readout: MIC (µg/mL)

Previously resolved entries follow.
- Molecule: "COc1cc(OC)cc(C2CC(c3ccc(Cl)cc3)=NN2C(C)=O)c1 (stereo unspecified)"
  Measurement Unit: "µg/mL"
  Val: 6.25
- Molecule: "CC(=O)N1N=C(c2ccc(C)c(C)c2)CC1c1ccccc1Cl (stereo unspecified)"
  Measurement Unit: "µg/mL"
  Val: 25
- Molecule: "CC(=O)N1N=C(c2ccccc2)CC1c1ccc(F)cc1 (stereo unspecified)"
  Measurement Unit: "µg/mL"
  Val: 25
- Molecule: "COc1cc(OC)cc(C2CC(c3ccc(Br)cc3)=NN2C(C)=O)c1 (stereo unspecified)"
  Measurement Unit: "µg/mL"
  Val: 6.25
- Molecule: "CC(=O)N1N=C(c2ccc(Br)cc2)CC1c1ccccc1Cl (stereo unspecified)"
  Measurement Unit: "µg/mL"
  Val: 25
- Molecule: "CC(=O)N1N=C(c2ccc(Cl)cc2)CC1c1ccccc1Cl (stereo unspecified)"
  Measurement Unit: "µg/mL"
  Val: 25
- Molecule: "COc1cc(OC)cc(C2CC(c3ccc(Cl)c(Cl)c3)=NN2C(C)=O)c1 (stereo unspecified)"
  Measurement Unit: "µg/mL"
  Val: 25
- Molecule: "COc1ccc(C2=NN(C(C)=O)C(c3ccc(F)cc3)C2)cc1 (stereo unspecified)"
  Measurement Unit: "µg/mL"
  Val: 6.25
- Molecule: "CC1(C)S[C@@H]2[C@H](NC(=O)Cc3ccccc3)C(=O)N2[C@H]1C(=O)O"
  Measurement Unit: "µg/mL"
  Val: 6.25

A: COc1ccc(C2=NN(C(C)=O)C(c3ccc(Br)cc3)C2)cc1 (stereo unspecified)
B: CC(=O)N1N=C(c2ccc(C)c(C)c2)CC1c1ccc(C)cc1 (stereo unspecified)
### Prompt Field: lower recorded MIC (choose A or B ) Answer = label.
### Response B

* * *

Tested on: Staphylococcus aureus
Method Summary: Antimicrobial activity against Staphylococcus aureus ATCC 6538 by MTT assay
Assay type: functional
Test Readout: MIC (µg/mL)

- Compound: "CC(=O)N1N=C(c2ccc(Cl)c(Cl)c2)CC1c1ccc(F)cc1 (stereo not given)"
  MIC, µg/mL: 12.5
- Compound: "CC(=O)N1N=C(c2ccccc2)CC1c1ccc(Cl)cc1 (stereo not given)"
  MIC, µg/mL: 12.5

* * *

Test system: Escherichia coli
Method Summary: Antimicrobial activity against Escherichia coli ATCC 35218 by MTT assay
Assay type: functional
Entries annotated with measured MIC

Previously resolved entries follow.
- Compound: "CC(=O)N1N=C(c2ccc(Cl)c(Cl)c2)CC1c1ccc(C)cc1 (stereo not drawn)"
  Tested On: "Escherichia coli"
  MIC: "> 50 µg/mL"
- Compound: "COc1cc(OC)cc(C2CC(c3ccc(Cl)c(Cl)c3)=NN2C(C)=O)c1 (stereo not drawn)"
  Tested On: "Escherichia coli"
  MIC: "> 50 µg/mL"

Kindly consider the entry below.
### Prompt # get_value(readout='MIC', item= CC(=O)N1N=C(c2ccc(C)c(C)c2)CC1c1ccc(C)cc1 (stereo not drawn) )
### Response > 50 µg/mL

* * *

Tested on: Enterococcus faecalis
Method Summary: Antimicrobial activity against Streptococcus faecalis ATCC 9790 by MTT assay
Assay type: functional
Test Readout: MIC (µg/mL)

Previously resolved entries follow.
- Compound: "CC(=O)N1N=C(c2ccc(C)c(C)c2)CC1c1ccccc1Cl (configuration not stated)"
  Val: 50
- Compound: "CC(=O)N1N=C(c2ccc(Br)cc2)CC1c1ccc(C)cc1 (configuration not stated)"
  Val: 50
- Compound: "CC(=O)N1N=C(c2ccc(Br)cc2)CC1c1ccccc1Cl (configuration not stated)"
  Val: 50
- Compound: "CC1(C)S[C@@H]2[C@H](NC(=O)Cc3ccccc3)C(=O)N2[C@H]1C(=O)O [PENICILLIN G]"
  Val: 1.56

P: COc1cc(OC)cc(C2CC(c3ccc(Cl)c(Cl)c3)=NN2C(C)=O)c1 (configuration not stated)
Q: COc1ccc(C2CC(c3ccc(C)c(C)c3)=NN2C(C)=O)cc1 (configuration not stated)
R: COc1ccc(C2CC(c3ccc(Br)cc3)=NN2C(C)=O)cc1 (configuration not stated)
### Prompt Output the entries ranked by MIC from maximum down to minimum. Give your ranking as a list of the labels in the requested order.
### Response P, Q, R
(P: 50 µg/mL, Q: 12.5 µg/mL, R: 6.25 µg/mL)

* * *

Tested on: Escherichia coli
Method Summary: Antimicrobial activity against Escherichia coli ATCC 35218 by MTT assay
Format: functional
Test Readout: MIC (µg/mL)

- Compound: "CC(=O)N1N=C(c2ccc(Cl)c(Cl)c2)CC1c1ccc(F)cc1 (stereo not drawn)"
  Val: 12.5
- Compound: "CC(=O)N1N=C(c2ccccc2F)CC1c1ccccc1Cl (stereo not drawn)"
  Val: 12.5
- Compound: "CC(=O)N1N=C(c2ccccc2)CC1c1ccc(C)cc1 (stereo not drawn)"
  Val: 25
- Compound: "CC(=O)N1N=C(c2ccccc2)CC1c1ccc(Cl)cc1 (stereo not drawn)"
  Val: 25
- Compound: "COc1ccc(C2CC(c3ccc(Cl)cc3)=NN2C(C)=O)cc1 (stereo not drawn)"
  Val: 25

1: CC(=O)N1N=C(c2ccc(Br)cc2)CC1c1ccc(F)cc1 (stereo not drawn)
2: COc1ccc(C2CC(c3ccc(C)c(C)c3)=NN2C(C)=O)cc1 (stereo not drawn)
3: COc1ccc(C2=NN(C(C)=O)C(c3ccc(Br)cc3)C2)cc1 (stereo not drawn)
4: COc1ccc(C2=NN(C(C)=O)C(c3ccc(C)cc3)C2)cc1 (stereo not drawn)
5: COc1cc(OC)cc(C2CC(c3ccc(Br)cc3)=NN2C(C)=O)c1 (stereo not drawn)
### Prompt Output the entries ranked by MIC from maximum down to minimum. Give your ranking as a list of the labels in the requested order.
### Response 5, 2, 1, 4, 3

P: CC(=O)N1N=C(c2ccc(Br)cc2)CC1c1ccc(Cl)cc1 (stereo not drawn)
Q: CC(=O)N1N=C(c2ccccc2)CC1c1ccc(Br)cc1 (stereo not drawn)
### Prompt Field: lower recorded MIC (choose P or Q ) Answer = label.
### Response Q
(Q: 12.5 µg/mL, P: 25 µg/mL)

Data credit: ChEMBL document CHEMBL1208728
